experiment: background-corrected fluorescence of 3'-dye-labeled ssDNA relative to brightest sequence (3'-GCGCG) (fraction); higher = brighter dye fluorescence (less quenching)
test.parameters: dye: Cy3 (3' terminal)

sequence.chain	background-corrected fluorescence
TTTTTGCATCATGATGATGATTTTTTTTTTTTTTTTGCCC [CCCGT]	0.378
TTTTTTGCTGCGCAGCATCATTTTTTTTTTTTTTTAATTG [GTTAA]	0.561
TTTTTTGAGCATGCTCATGATTTTTTTTTTTTTTTCTAGC [CGATC]	0.508
TTTTTTCATGAGCATGCTCATTTTTTTTTTTTTTTGCTAG [GATCG]	0.57
TTTTTTGCGCATCAGCAGCATTTTTTTTTTTTTTTATGTT [TTGTA]	0.575
TTTTTTGCTCATCATGATGATTTTTTTTTTTTTTTAGGCC [CCGGA]	0.479
TTTTTTGCTGATGCTGATCATTTTTTTTTTTTTTTACACG [GCACA]	0.504
TTTTTTGATGAGCAGCATGATTTTTTTTTTTTTTTCCTTC [CTTCC]	0.362

* * *

experiment: background-corrected fluorescence of 3'-dye-labeled ssDNA relative to brightest sequence (3'-GCGCG) (fraction); higher = brighter dye fluorescence (less quenching)
test.parameters: dye: Cy3 (3' terminal)
background-corrected fluorescence overview

sequence.chain	background-corrected fluorescence
TTTTTTCATGAGCATGCTGCTTTTTTTTTTTTTTTGCTAA [AATCG]	0.534
TTTTTTCATGATGATCATGATTTTTTTTTTTTTTTGCCGC [CGCCG]	0.549
TTTTTTCATGAGCATGCGCATTTTTTTTTTTTTTTGCTAT [TATCG]	0.52
TTTTTGCAGCATGCTGCTGCTTTTTTTTTTTTTTTTTAAA [AAATT]	0.63
TTTTTTGCGCATGCGCATGATTTTTTTTTTTTTTTATATC [CTATA]	0.438
TTTTTGCATCATCATGAGCATTTTTTTTTTTTTTTTGGCT [TCGGT]	0.549
TTTTTTGAGCATGCGCATGCTTTTTTTTTTTTTTTCTATA [ATATC]	0.527
TTTTTTCATGATGATGCTGATTTTTTTTTTTTTTTGCCAC [CACCG]	0.393
TTTTTTGATCATGAGCATGATTTTTTTTTTTTTTTCGCTC [CTCGC]	0.452
TTTTTTGCGCATGATGATGATTTTTTTTTTTTTTTATCCC [CCCTA]	0.369
TTTTTGCAGCATCAGCATGATTTTTTTTTTTTTTTTTGTC [CTGTT]	0.407
TTTTTGCAGCATGCTGCGCATTTTTTTTTTTTTTTTTAAT [TAATT]	0.576
TTTTTTGCTCATCATCATCATTTTTTTTTTTTTTTAGGGG [GGGGA]	0.69
TTTTTTGATGCTGATGCTGATTTTTTTTTTTTTTTCACAC	0.392

* * *

background-corrected fluorescence overview
experiment: background-corrected fluorescence of 3'-dye-labeled ssDNA relative to brightest sequence (3'-GCGCG) (fraction); higher = brighter dye fluorescence (less quenching)
test.parameters: dye: Cy3 (3' terminal)

sequence.chain	background-corrected fluorescence
TTTTTTGCTGAGCAGCATCATTTTTTTTTTTTTTTACTTG [GTTCA]	0.503
TTTTTTGCGCAGCATCAGCATTTTTTTTTTTTTTTATTGT [TGTTA]	0.589
TTTTTTGCTGCTGCTGAGCATTTTTTTTTTTTTTTAAACT [TCAAA]	0.496
TTTTTTGCGCATCATGCTCATTTTTTTTTTTTTTTATGAG [GAGTA]	0.602
TTTTTGCATCATGATCATCATTTTTTTTTTTTTTTTGCGG [GGCGT]	0.603
TTTTTTGAGCATGAGCAGCATTTTTTTTTTTTTTTCTCTT	0.49

* * *

background-corrected fluorescence overview
experiment: background-corrected fluorescence of 3'-dye-labeled ssDNA relative to brightest sequence (3'-GCGCG) (fraction); higher = brighter dye fluorescence (less quenching)
test.parameters: dye: Cy5 (3' terminal)

sequence.chain	background-corrected fluorescence
TTTTTTGCTCATGCGCATGATTTTTTTTTTTTTTTAGATC [CTAGA]	0.359
TTTTTTCATGATGATCATGATTTTTTTTTTTTTTTGCCGC [CGCCG]	0.434
TTTTTGCAGCATCATCATCATTTTTTTTTTTTTTTTTGGG [GGGTT]	0.549

* * *

experiment: background-corrected fluorescence of 3'-dye-labeled ssDNA relative to brightest sequence (3'-GCGCG) (fraction); higher = brighter dye fluorescence (less quenching)
test.parameters: dye: Cy3 (3' terminal)
background-corrected fluorescence overview

sequence.chain	background-corrected fluorescence
TTTTTTGATCATCATGCTCATTTTTTTTTTTTTTTCGGAG [GAGGC]	0.603
TTTTTTGATGAGCATCATGCTTTTTTTTTTTTTTTCCTGA [AGTCC]	0.592
TTTTTGCATGATGCTGCGCATTTTTTTTTTTTTTTTCAAT [TAACT]	0.554
TTTTTTGATCATGATGCTCATTTTTTTTTTTTTTTCGCAG [GACGC]	0.595
TTTTTTGATGAGCATGATGCTTTTTTTTTTTTTTTCCTCA [ACTCC]	0.493
TTTTTGCATGCGCATGATGCTTTTTTTTTTTTTTTTATCA [ACTAT]	0.478
TTTTTTCATGCTCATGCTGCTTTTTTTTTTTTTTTGAGAA [AAGAG]	0.645
TTTTTTGCTCATGCTCATGATTTTTTTTTTTTTTTAGAGC [CGAGA]	0.565
TTTTTTGCTGATCATGATGCTTTTTTTTTTTTTTTACGCA	0.525
TTTTTTCATCATCAGCATCATTTTTTTTTTTTTTTGGGTG [GTGGG]	0.627
TTTTTGCAGCAGCATGCGCATTTTTTTTTTTTTTTTTTAT [TATTT]	0.503
TTTTTGCAGCAGCAGCATGCTTTTTTTTTTTTTTTTTTTA [ATTTT]	0.501
TTTTTTGCTGATGCTCAGCATTTTTTTTTTTTTTTACAGT [TGACA]	0.629
TTTTTTGCTGCTGATGCTGCTTTTTTTTTTTTTTTAACAA	0.527
TTTTTTCATGATCATGCTCATTTTTTTTTTTTTTTGCGAG [GAGCG]	0.608
TTTTTTCATGCTGCTGATCATTTTTTTTTTTTTTTGAACG [GCAAG]	0.541
TTTTTTCATGCTCATCATGATTTTTTTTTTTTTTTGAGGC [CGGAG]	0.585
TTTTTTCATGATGATGATGATTTTTTTTTTTTTTTGCCCC [CCCCG]	0.32
TTTTTTGCGCATGATGCGCATTTTTTTTTTTTTTTATCAT [TACTA]	0.511
TTTTTTGATGATGCTGATCATTTTTTTTTTTTTTTCCACG [GCACC]	0.513
TTTTTTGCTGATCAGCATGCTTTTTTTTTTTTTTTACGTA [ATGCA]	0.61
TTTTTTGATGCTGCTCAGCATTTTTTTTTTTTTTTCAAGT [TGAAC]	0.629

* * *

experiment: background-corrected fluorescence of 3'-dye-labeled ssDNA relative to brightest sequence (3'-GCGCG) (fraction); higher = brighter dye fluorescence (less quenching)
test.parameters: dye: Cy5 (3' terminal)

sequence.chain	background-corrected fluorescence
TTTTTTCAGCAGCAGCATGCTTTTTTTTTTTTTTTGTTTA [ATTTG]	0.403
TTTTTTGATGATGCTCATGCTTTTTTTTTTTTTTTCCAGA [AGACC]	0.527
TTTTTTCATGATGATGAGCATTTTTTTTTTTTTTTGCCCT [TCCCG]	0.329
TTTTTGCAGCATGCGCATGCTTTTTTTTTTTTTTTTTATA [ATATT]	0.4
TTTTTTGCGCAGCAGCATCATTTTTTTTTTTTTTTATTTG [GTTTA]	0.355
TTTTTGCAGCATGCTCAGCATTTTTTTTTTTTTTTTTAGT [TGATT]	0.5
TTTTTTGATGCTGCTGAGCATTTTTTTTTTTTTTTCAACT	0.342
TTTTTTCATGATGATGCTCATTTTTTTTTTTTTTTGCCAG [GACCG]	0.384

* * *

experiment: background-corrected fluorescence of 3'-dye-labeled ssDNA relative to brightest sequence (3'-GCGCG) (fraction); higher = brighter dye fluorescence (less quenching)
test.parameters: dye: Cy5 (3' terminal)
Would you mind labelling by background-corrected fluorescence? At or over 0.4 is MET, under is NOT MET.

sequence.chain	category
TTTTTTGCTGCTGATCATCATTTTTTTTTTTTTTTAACGG [GGCAA]	MET
TTTTTTGATGATGATGCTGATTTTTTTTTTTTTTTCCCAC [CACCC]	NOT MET
TTTTTTGAGCATGATGAGCATTTTTTTTTTTTTTTCTCCT [TCCTC]	NOT MET
TTTTTGCATCAGCATGCGCATTTTTTTTTTTTTTTTGTAT [TATGT]	MET
TTTTTGCAGCAGCATGATGCTTTTTTTTTTTTTTTTTTCA [ACTTT]	NOT MET
TTTTTGCATGATGATGATCATTTTTTTTTTTTTTTTCCCG [GCCCT]	NOT MET
TTTTTGCATCATGCGCATGCTTTTTTTTTTTTTTTTGATA [ATAGT]	MET
TTTTTTCATGCGCATGCTGATTTTTTTTTTTTTTTGATAC [CATAG]	NOT MET
TTTTTTCATGATGATGCTGATTTTTTTTTTTTTTTGCCAC [CACCG]	NOT MET
TTTTTTCATGATCAGCATCATTTTTTTTTTTTTTTGCGTG [GTGCG]	MET
TTTTTTGCGCATCATCAGCATTTTTTTTTTTTTTTATGGT [TGGTA]	MET
TTTTTGCAGCATGCTCATGATTTTTTTTTTTTTTTTTAGC [CGATT]	NOT MET
TTTTTGCATGCTGATGCTGCTTTTTTTTTTTTTTTTACAA [AACAT]	MET
TTTTTTGAGCATCATGCTGCTTTTTTTTTTTTTTTCTGAA [AAGTC]	MET
TTTTTTGATGAGCATGCTGCTTTTTTTTTTTTTTTCCTAA [AATCC]	MET
TTTTTTGCTGAGCATCATGCTTTTTTTTTTTTTTTACTGA [AGTCA]	MET
TTTTTGCATGCTGCTCATGCTTTTTTTTTTTTTTTTAAGA [AGAAT]	MET
TTTTTTGCTGATGAGCATCATTTTTTTTTTTTTTTACCTG [GTCCA]	NOT MET
TTTTTTGATCATGAGCATGATTTTTTTTTTTTTTTCGCTC [CTCGC]	NOT MET
TTTTTTGCGCAGCATCATGCTTTTTTTTTTTTTTTATTGA [AGTTA]	MET
TTTTTTGCGCATGCTGCTGATTTTTTTTTTTTTTTATAAC [CAATA]	NOT MET
TTTTTGCATGAGCATGCGCATTTTTTTTTTTTTTTTCTAT [TATCT]	NOT MET
TTTTTTGATCATCATCAGCATTTTTTTTTTTTTTTCGGGT [TGGGC]	MET
TTTTTTCATGCTGCTGCGCATTTTTTTTTTTTTTTGAAAT [TAAAG]	MET
